src = patent US20170232083A1

I'd be grateful if you could share measured IFN-γ ELISpot response for these entries.
Test system: PBMC (polyclonal gluten-specific T cells) of paediatric and adult CD patients
assay-protocol: IFN-γ ELISpot of PBMC after 3 day oral wheat challenge (SFU, % of maximal peptide response, dominance scores, EC50; Examples 5-6)
Type: cell-based, human
condition-label: patient G, 11-17 yrs; after oral wheat challenge; cut-off 10 SFU
Respond numerically; units are SFU and should not be typed.

*Q* Tell me IFN-γ ELISpot response reported for QPFPQPQQPIPVQ [Peptide W04]
*A* 4

*Q* Tell me IFN-γ ELISpot response reported for QPFPQPQQPFSQQ
*A* 1

*Q* Tell me IFN-γ ELISpot response reported for PFPEQPEQPYPQQ
*A* 1

*Q* Tell me IFN-γ ELISpot response reported for FPQPEQEFPQPQQ
*A* 4

*Q* Tell me IFN-γ ELISpot response reported for GLERPWQEQPLPPQ
*A* 0

*Q* Tell me IFN-γ ELISpot response reported for QPFPQPEQPIPVQ
*A* 3

*Q* Tell me IFN-γ ELISpot response reported for FLQPEQPFPEQPEQPYPEQPEQPFPQ
*A* 1

*Q* Tell me IFN-γ ELISpot response reported for LPYPQPQLPYPQP
*A* 2

*Q* Tell me IFN-γ ELISpot response reported for LQPFPQPELPYSQP
*A* 5

*Q* Tell me IFN-γ ELISpot response reported for GQSGYYPTSPQQS
*A* 1

*Q* Tell me IFN-γ ELISpot response reported for QPFPQPEQPFPWQP
*A* 8

*Q* Tell me IFN-γ ELISpot response reported for PEQPFPEQPEQPF
*A* 2

*Q* Tell me IFN-γ ELISpot response reported for PIPQQPQQPFPLQ
*A* 2

*Q* Tell me IFN-γ ELISpot response reported for PFPEQPEQPFPQP
*A* 5

*Q* Tell me IFN-γ ELISpot response reported for PQQPQQSFPQQQQPA
*A* 11

*Q* Tell me IFN-γ ELISpot response reported for LQPFPQPELPFPQP [Peptide W06]
*A* 7

*Q* Tell me IFN-γ ELISpot response reported for YEVIRSLVLRTLPN
*A* 1

*Q* Tell me IFN-γ ELISpot response reported for QPFPQPEQPFPWQ [Peptide W03, contains DQ2.5-glia-w1 and w2]
*A* 5

*Q* Tell me IFN-γ ELISpot response reported for TIPEQPEQPFPLQ
*A* 2

*Q* Tell me IFN-γ ELISpot response reported for PFPLQPEQPFPQP
*A* 2

*Q* Tell me IFN-γ ELISpot response reported for QFIQPEQPFPQQ
*A* 2

*Q* Tell me IFN-γ ELISpot response reported for LQPFPQPELPYPQPQ
*A* 10

*Q* Tell me IFN-γ ELISpot response reported for PEQTFPEQPQLPF
*A* 15

*Q* Tell me IFN-γ ELISpot response reported for PFPQQPQQPFPQP
*A* 0

*Q* Tell me IFN-γ ELISpot response reported for GIIQPQQPAQL
*A* 0

*Q* Tell me IFN-γ ELISpot response reported for LPYPQPELPYPQP [Peptide W01]
*A* 7

*Q* Tell me IFN-γ ELISpot response reported for FPQPQQQFPQPQQ
*A* 1

*Q* Tell me IFN-γ ELISpot response reported for LQPRPQPELPYPQP
*A* 4

*Q* Tell me IFN-γ ELISpot response reported for LQPFPQPQLPYPQP
*A* 3

###

I'd be grateful if you could share measured Dominance score Mean all ages for these entries.
Tested on: PBMC (polyclonal gluten-specific T cells) of paediatric and adult CD patients
assay-protocol: IFN-γ ELISpot of PBMC after 3 day oral wheat challenge (SFU, % of maximal peptide response, dominance scores, EC50; Examples 5-6)
Format: cell-based, human
condition-label: CD children, all ages, following wheat challenge (Table 9)
Just the number, please.

*Q* Tell me Dominance score Mean all ages reported for W26 (PFPLQPEQPFPQP) [Peptide W26]
*A* 45.8

*Q* Tell me Dominance score Mean all ages reported for W07 (QPFPQPEQPFCQQ) [Peptide W07]
*A* 22.7

*Q* Tell me Dominance score Mean all ages reported for LPYPQPELPYPQP [Peptide W01]
*A* 62.6

*Q* Tell me Dominance score Mean all ages reported for W05 (QPFPQPEQPFSQQ) [Peptide W05]
*A* 28.6

*Q* Tell me Dominance score Mean all ages reported for W09 (PQPFLPELPYPQP) [Peptide W09]
*A* 25.2

*Q* Tell me Dominance score Mean all ages reported for W08 (LQPFPQPELPYSQP) [Peptide W08]
*A* 44.9

*Q* Tell me Dominance score Mean all ages reported for LQPFPQPELPYPQP [Peptide W02, contains DQ2.5-glia-a1a and a2]
*A* 63.3

###

Test system: PBMC (polyclonal gluten-specific T cells) of paediatric and adult CD patients
assay-protocol: IFN-γ ELISpot of PBMC after 3 day oral wheat challenge (SFU, % of maximal peptide response, dominance scores, EC50; Examples 5-6)
Type: cell-based, human
condition-label: subject J
quantity: Significant response as a percentage of maximal peptide SFU

Solved cases (5 shown):
seq-text	measured-target	observed-result
QPFPQPEQPFRQQ	PBMC (polyclonal gluten-specific T cells) of paediatric and adult CD patients	(6-10% - ^)
QPFPQPEQPFPLQ	PBMC (polyclonal gluten-specific T cells) of paediatric and adult CD patients	′′′ (41-70% = ′′′)
QPFPQPEQQLPLQ	PBMC (polyclonal gluten-specific T cells) of paediatric and adult CD patients	′′′ (41-70% = ′′′)
NPLQPEQPFPLQPQPP	PBMC (polyclonal gluten-specific T cells) of paediatric and adult CD patients	′ (11-20% = ′)
QPFPQPEQPIPYQ	PBMC (polyclonal gluten-specific T cells) of paediatric and adult CD patients	′′′ (41-70% = ′′′)

*Q* Tell me Significant response as a percentage of maximal peptide SFU reported for QPFPQPEQPFSWQ
*A* ′′′ (41-70% = ′′′)

*Q* Tell me Significant response as a percentage of maximal peptide SFU reported for PEQPFPEQPQPYPQQP
*A* ′ (11-20% = ′)

###

System: PBMC (polyclonal gluten-specific T cells) of paediatric and adult CD patients
assay-protocol: IFN-γ ELISpot of PBMC after 3 day oral wheat challenge (SFU, % of maximal peptide response, dominance scores, EC50; Examples 5-6)
Format: cell-based, human
condition-label: patient five; max peptide 48 SFU
quantity: Significant response as percentage of maximal peptide SFU

Solved cases (5 shown):
seq-text	measured-target	observed-result
LPYPQPELPYPQP [Peptide W01]	PBMC (polyclonal gluten-specific T cells) of paediatric and adult CD patients	′′′ (41-70% = ′′′)
LQPFPQPELPYSQP	PBMC (polyclonal gluten-specific T cells) of paediatric and adult CD patients	′′′ (41-70% = ′′′)
LQPFPQPELPYPQPQ	PBMC (polyclonal gluten-specific T cells) of paediatric and adult CD patients	+ (>70% = +)
QPFPQPQQPFSQQ	PBMC (polyclonal gluten-specific T cells) of paediatric and adult CD patients	′′ (21-40% = ′′)
LPYPQPQLPYPQP	PBMC (polyclonal gluten-specific T cells) of paediatric and adult CD patients	′′ (21-40% = ′′)

*Q* Tell me Significant response as percentage of maximal peptide SFU reported for LQPRPQPELPYPQP
*A* + (>70% = +)

*Q* Tell me Significant response as percentage of maximal peptide SFU reported for QPFPQPEQPFPWQ [Peptide W03, contains DQ2.5-glia-w1 and w2]
*A* + (>70% = +)

*Q* Tell me Significant response as percentage of maximal peptide SFU reported for PFPEQPEQPFPQP
*A* ′′ (21-40% = ′′)

*Q* Tell me Significant response as percentage of maximal peptide SFU reported for QPFPQPEQPFPWQP
*A* + (>70% = +)

###

Tested on: PBMC (polyclonal gluten-specific T cells) of paediatric and adult CD patients
assay-protocol: IFN-γ ELISpot of PBMC after 3 day oral wheat challenge (SFU, % of maximal peptide response, dominance scores, EC50; Examples 5-6)
Assay type: cell-based, human
condition-label: patient four, 3-5yrs; after oral wheat challenge; cut-off 10 SFU
Please use the following IFN-γ ELISpot response ranges when assigning a class: low value = under 4 SFU, medium value = from 4 SFU up to 10 SFU, high value = 10 SFU and over

*Q* Band for PFPEQPEQPFPQP ?
*A* medium value

*Q* Band for PFPLQPEQPFPQP ?
*A* high value

*Q* Band for GLERPWQEQPLPPQ ?
*A* medium value

*Q* Band for QPFPQPQQPIPVQ [Peptide W04] ?
*A* medium value

*Q* Band for GIIQPQQPAQL ?
*A* low value

*Q* Band for LQPFPQPQLPYPQP ?
*A* high value

*Q* Band for PIPQQPQQPFPLQ ?
*A* low value

*Q* Band for LPYPQPELPYPQP [Peptide W01] ?
*A* high value

*Q* Band for PQQPQQSFPQQQQPA ?
*A* low value

*Q* Band for LPYPQPQLPYPQP ?
*A* high value

*Q* Band for YEVIRSLVLRTLPN ?
*A* low value

*Q* Band for LQPRPQPELPYPQP ?
*A* high value

*Q* Band for PEQTFPEQPQLPF ?
*A* low value

*Q* Band for TIPEQPEQPFPLQ ?
*A* low value

*Q* Band for QPFPQPEQPFPWQP ?
*A* high value

*Q* Band for FPQPQQQFPQPQQ ?
*A* medium value

*Q* Band for PFPQQPQQPFPQP ?
*A* low value

*Q* Band for QPFPQPEQPFPWQ [Peptide W03, contains DQ2.5-glia-w1 and w2] ?
*A* high value

*Q* Band for LQPFPQPELPYPQPQ ?
*A* high value

*Q* Band for GQSGYYPTSPQQS ?
*A* low value

*Q* Band for QPFPQPQQPFSQQ ?
*A* high value

*Q* Band for LQPFPQPELPYSQP ?
*A* high value

*Q* Band for QFIQPEQPFPQQ ?
*A* medium value
